This collection of values is drawn from ChEMBL document CHEMBL4014348.

Let's look at some compounds and their measured IC50.
# targetEntity: Histone deacetylase 1/2/3/6 (Homo sapiens, UniProt Q13547+O15379+Q9UBN7+Q92769)
# protocolDescription: Inhibition of HDAC1/2/3/6 in human Cal27 cells using Boc-Lys(epsilon-Ac)-AMC as substrate preincubated for 18 hrs followed by substrate addition measured after 3 hrs by fluorescence assay
# Type: cell-based
The response must be a number in µM with no trailing unit.

>  <compound>
Cc1cc(C)cc(C(=O)N(CCCCCC(=O)NO)CC(=O)NC2CCCCC2)c1

>  <IC50 (µM)>
0.71

$$$$
>  <compound>
CN(C)c1ccc(C(=O)N(CCCCCC(=O)NO)CC(=O)NCc2ccccc2)cc1

>  <IC50 (µM)>
0.27

$$$$

Next item in the queue.
compound `CN(C)c1ccc(C(=O)N(CCCCCC(=O)NO)C(C)(C)C(=O)NC2CCCCC2)cc1` , IC50 observed: 18.2

* * *

# targetEntity: Histone deacetylase 1/2/3/6 (Homo sapiens, UniProt Q13547+O15379+Q9UBN7+Q92769)
# protocolDescription: Inhibition of HDAC1/2/3/6 in human A2780cisR cells using Boc-Lys(epsilon-Ac)-AMC as substrate preincubated for 18 hrs followed by substrate addition measured after 3 hrs by fluorescence assay
# Type: cell-based
Entries and their IC50 values follow.
Please give a number only; it is taken to be in nM.

In the examples that follow, each entry is paired with its recorded IC50.
>  <compound>
O=C(CCCCCN(CC(=O)NC1CCCCC1)C(=O)c1ccccc1)NO

>  <targetEntity>
Histone deacetylase 1/2/3/6 (Homo sapiens, UniProt Q13547+O15379+Q9UBN7+Q92769)

>  <unitSymbol>
nM

>  <measurement>
1130

$$$$
>  <compound>
CC(C)(C)NC(=O)C(C)(C)N(CCCCCC(=O)NO)C(=O)c1ccccc1

>  <targetEntity>
Histone deacetylase 1/2/3/6 (Homo sapiens, UniProt Q13547+O15379+Q9UBN7+Q92769)

>  <unitSymbol>
nM

>  <measurement>
102000

$$$$
>  <compound>
O=C(CCCCCN(CC(=O)NC1CCCCC1)C(=O)c1cccc2ccccc12)NO

>  <targetEntity>
Histone deacetylase 1/2/3/6 (Homo sapiens, UniProt Q13547+O15379+Q9UBN7+Q92769)

>  <unitSymbol>
nM

>  <measurement>
1290

$$$$
>  <compound>
Cc1cc(C)cc(C(=O)N(CCCCCC(=O)NO)CC(=O)NCc2ccccc2)c1

>  <targetEntity>
Histone deacetylase 1/2/3/6 (Homo sapiens, UniProt Q13547+O15379+Q9UBN7+Q92769)

>  <unitSymbol>
nM

>  <measurement>
350

$$$$

get_value(item= `CN(C)c1ccc(C(=O)N(CCCCCC(=O)NO)CC(=O)NC2CCCCC2)cc1` , readout=IC50) returns 1900
